Assignment: determine reported Dmax for the given compounds.
Target: IKZF2 (Homo sapiens, UniProt Q96SW2+Q9UKS7)
Construct: host or cells: Jurkat-IKZF2-HiBiT
Sequence (Q9UKS7 whole entry): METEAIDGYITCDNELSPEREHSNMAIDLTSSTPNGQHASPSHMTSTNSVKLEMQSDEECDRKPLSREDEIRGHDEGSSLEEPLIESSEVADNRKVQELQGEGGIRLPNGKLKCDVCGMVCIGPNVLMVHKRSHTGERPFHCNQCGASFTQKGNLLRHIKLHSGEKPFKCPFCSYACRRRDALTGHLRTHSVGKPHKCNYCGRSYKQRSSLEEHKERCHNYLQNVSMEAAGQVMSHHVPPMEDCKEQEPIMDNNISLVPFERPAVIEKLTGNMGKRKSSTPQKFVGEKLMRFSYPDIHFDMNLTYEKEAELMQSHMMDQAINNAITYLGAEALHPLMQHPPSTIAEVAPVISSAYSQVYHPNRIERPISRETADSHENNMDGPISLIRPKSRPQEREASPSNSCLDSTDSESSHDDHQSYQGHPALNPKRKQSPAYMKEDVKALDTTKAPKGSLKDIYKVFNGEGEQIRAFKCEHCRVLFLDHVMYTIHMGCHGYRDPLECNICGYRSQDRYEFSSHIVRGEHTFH
Sequence (Q96SW2 whole entry): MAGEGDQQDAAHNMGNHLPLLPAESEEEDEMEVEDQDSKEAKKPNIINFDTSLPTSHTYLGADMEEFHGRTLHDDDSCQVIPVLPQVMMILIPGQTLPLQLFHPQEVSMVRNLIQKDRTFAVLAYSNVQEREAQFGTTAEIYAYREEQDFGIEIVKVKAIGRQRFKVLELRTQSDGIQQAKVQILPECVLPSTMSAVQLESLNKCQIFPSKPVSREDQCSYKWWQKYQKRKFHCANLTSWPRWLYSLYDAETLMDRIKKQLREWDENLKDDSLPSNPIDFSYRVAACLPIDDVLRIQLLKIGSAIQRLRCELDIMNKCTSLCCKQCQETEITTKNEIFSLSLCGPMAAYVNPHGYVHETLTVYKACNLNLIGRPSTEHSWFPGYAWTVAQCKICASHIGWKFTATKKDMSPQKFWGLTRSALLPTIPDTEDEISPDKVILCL
Sequence (Q16531 2-1140 partner limits assumed): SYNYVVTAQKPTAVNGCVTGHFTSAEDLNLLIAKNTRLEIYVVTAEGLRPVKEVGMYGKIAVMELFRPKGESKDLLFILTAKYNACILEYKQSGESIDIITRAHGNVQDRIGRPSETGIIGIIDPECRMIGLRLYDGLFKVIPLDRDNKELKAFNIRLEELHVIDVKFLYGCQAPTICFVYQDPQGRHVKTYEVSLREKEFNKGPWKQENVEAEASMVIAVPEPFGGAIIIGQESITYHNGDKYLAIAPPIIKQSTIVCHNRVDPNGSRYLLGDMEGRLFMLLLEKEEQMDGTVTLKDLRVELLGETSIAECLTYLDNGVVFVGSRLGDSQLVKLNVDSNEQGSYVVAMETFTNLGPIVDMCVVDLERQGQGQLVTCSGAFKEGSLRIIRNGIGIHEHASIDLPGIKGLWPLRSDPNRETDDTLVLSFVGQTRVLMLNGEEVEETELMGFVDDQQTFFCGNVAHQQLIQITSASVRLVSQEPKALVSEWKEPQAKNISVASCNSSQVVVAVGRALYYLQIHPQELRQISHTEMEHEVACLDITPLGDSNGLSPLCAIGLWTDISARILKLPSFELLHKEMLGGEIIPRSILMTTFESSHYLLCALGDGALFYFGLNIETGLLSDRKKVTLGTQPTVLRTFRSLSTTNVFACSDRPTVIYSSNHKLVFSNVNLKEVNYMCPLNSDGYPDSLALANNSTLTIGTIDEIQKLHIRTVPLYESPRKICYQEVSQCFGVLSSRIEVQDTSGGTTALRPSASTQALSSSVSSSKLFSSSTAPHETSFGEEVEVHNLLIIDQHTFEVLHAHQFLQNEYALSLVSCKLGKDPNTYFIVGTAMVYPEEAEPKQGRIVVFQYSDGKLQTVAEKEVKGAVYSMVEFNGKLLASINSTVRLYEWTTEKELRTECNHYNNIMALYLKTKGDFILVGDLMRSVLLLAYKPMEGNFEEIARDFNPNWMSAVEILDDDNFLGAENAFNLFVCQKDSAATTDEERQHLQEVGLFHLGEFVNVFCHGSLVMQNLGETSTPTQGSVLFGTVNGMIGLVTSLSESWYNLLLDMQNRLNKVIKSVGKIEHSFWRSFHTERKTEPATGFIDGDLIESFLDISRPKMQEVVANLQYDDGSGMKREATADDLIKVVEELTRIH
Test: IKZF2 HiBiT degradation assay (Jurkat-IKZF2-HiBiT)
Type: cell-based
Conditions: read-out: IKZF2 degradation Dmax (%)

Q. Determine its reported Dmax: CC(C)(C)OC(=O)N1CCC2(CCC(CN3CCN4c5cc6c(cc5OC[C@@H]4C3)C(=O)N([C@H]3CCC(=O)NC3=O)C6)CC2)CC1
A. 57%

Q. Determine its reported Dmax: COc1ccc(C(=O)Nc2cccc(CN3CCN4c5cc6c(cc5OC[C@H]4C3)C(=O)N(C3CCC(=O)NC3=O)C6)c2)cc1 (stereo partly drawn)
A. 44%

Q. Determine its reported Dmax: O=C1CC[C@H](N2Cc3cc4c(cc3C2=O)OC[C@@H]2CN(CCC3CCCCC3)CCN42)C(=O)N1
A. 71%

###

Biological target: wild-type human CRBN protein (Homo sapiens)
Counter-ions that a name gives are not always drawn.
Assignment: determine reported IC50 for the given molecules.
Number in nM, nothing else.

Q. Determine its reported IC50: O=C1CCC(N2Cc3cc4c(cc3C2=O)OC[C@@H]2CN(Cc3ccc(F)cc3)CCN42)C(=O)N1 (stereo partly shown)
A. 330

Q. Determine its reported IC50: CC(=O)N1CCN2c3ccc4c(c3OC[C@H]2C1)CN([C@H]1CCC(=O)NC1=O)C4=O
A. 180

Q. Determine its reported IC50: O=C1CCC(N2Cc3cc4c(cc3C2=O)OC[C@H]2CNCCN42)C(=O)N1 (stereo partly shown) [Compound B6, trifluoroacetate salt]
A. 3100

Q. Determine its reported IC50: O=C1CCC(N2Cc3c(ccc4c3N3CCNC[C@H]3CO4)C2=O)C(=O)N1 (stereo in doubt)
A. 1400

###

Target: IKZF2 (Homo sapiens, UniProt Q96SW2+Q9UKS7)
Construct: host or cells: Jurkat-IKZF2-HiBiT
Assay: IKZF2 HiBiT degradation assay (Jurkat-IKZF2-HiBiT)
Assay type: cell-based
Details: read-out: IKZF2 degradation DC50; Jurkat-IKZF2-HiBiT cells, 24 hours
VALUE TYPE: log10 of DC50 (log10 of the value in nM)
Reminder: these figures are log10 of reported DC50, in nM before transformation.

Q. Determine its reported log10 of DC50: C[C@H]1CC[C@H](CN2CCN3c4cc5c(cc4OC[C@@H]3C2)C(=O)N([C@H]2CCC(=O)NC2=O)C5)CC1 [Compound C33]
A. 2.71

Q. Determine its reported log10 of DC50: O=C1CC[C@H](N2Cc3cc4c(cc3C2=O)OC[C@@H]2CN(CC3CC5CCC3C5)CCN42)C(=O)N1 (some centres unmarked) [Compound C36]
A. 2.58

Q. Determine its reported log10 of DC50: O=C1CC[C@H](N2Cc3cc4c(cc3C2=O)OC[C@@H]2CN(CCC3CCCCC3)CCN42)C(=O)N1 [Compound C32]
A. 2.51

Q. Determine its reported log10 of DC50: O=C1CCC(N2Cc3cc4c(cc3C2=O)OC[C@@H]2CN(CC3CCCC3)CCN42)C(=O)N1 (some centres unmarked) [Compound C4]
A. 2.63

Q. Determine its reported log10 of DC50: Cc1ccc(C(=O)Nc2cccc(CN3CCN4c5cc6c(cc5OC[C@@H]4C3)C(=O)N([C@H]3CCC(=O)NC3=O)C6)c2)cc1 [Compound C23]
A. 1.26

Q. Determine its reported log10 of DC50: O=C1CCC(N2Cc3cc(C4CCN(Cc5ccccc5)CC4)ccc3C2=O)C(=O)N1 (centres unmarked) [DKY709]
A. 1.79

Q. Determine its reported log10 of DC50: O=C1CCC(N2Cc3cc4c(cc3C2=O)OC[C@@H]2CN(CC3CCCCC3)CCN42)C(=O)N1 (some centres unmarked) [Compound C2]
A. 3.15

Q. Determine its reported log10 of DC50: COc1ccc(C(=O)Nc2cccc(CN3CCN4c5cc6c(cc5OC[C@@H]4C3)C(=O)N([C@H]3CCC(=O)NC3=O)C6)c2)cc1 [Compound C21]
A. 0.95

###

Assignment: determine reported DC50 for the given compounds.
Target: IKZF2 (Homo sapiens, UniProt Q96SW2+Q9UKS7)
Construct: host or cells: Jurkat-IKZF2-HiBiT
Assay: IKZF2 HiBiT degradation assay (Jurkat-IKZF2-HiBiT)
Type: cell-based
Details: read-out: IKZF2 degradation DC50; Jurkat-IKZF2-HiBiT cells, 24 hours
Number in nM, nothing else.

Q. Determine its reported DC50: CC(C)(C)OC(=O)N1CCC2(CCC(CN3CCN4c5cc6c(cc5OC[C@@H]4C3)C(=O)N([C@H]3CCC(=O)NC3=O)C6)CC2)CC1
A. 424

Q. Determine its reported DC50: O=C1CC[C@H](N2Cc3cc4c(cc3C2=O)OC[C@@H]2CN(CC3CCCC3)CCN42)C(=O)N1
A. 402

Q. Determine its reported DC50: O=C1CC[C@H](N2Cc3cc4c(cc3C2=O)OC[C@@H]2CN(CC3CCC5(CC3)COC5)CCN42)C(=O)N1
A. 933

Q. Determine its reported DC50: O=C1CC[C@H](N2Cc3cc4c(cc3C2=O)OC[C@@H]2CN(Cc3cccc(NC(=O)c5ccc(Cl)cc5)c3)CCN42)C(=O)N1
A. 25

###

Target: IKZF2 (Homo sapiens, UniProt Q96SW2+Q9UKS7)
Construct: host or cells: Jurkat-IKZF2-HiBiT
Test: IKZF2 HiBiT degradation assay (Jurkat-IKZF2-HiBiT)
Assay type: cell-based
Conditions: read-out: IKZF2 degradation DC50; Jurkat-IKZF2-HiBiT cells, 24 hours
Assignment: determine reported DC50 for the given molecules.

Q. Determine its reported DC50: CCCN1CCN2c3cc4c(cc3OC[C@@H]2C1)C(=O)N(C1CCC(=O)NC1=O)C4 (stereo partly drawn)
A. > 2000 nM

Q. Determine its reported DC50: Cn1cc(-c2cccc(CN3CCN4c5cc6c(cc5OC[C@@H]4C3)C(=O)N([C@H]3CCC(=O)NC3=O)C6)c2)cn1
A. > 10000 nM

Q. Determine its reported DC50: COc1ccc(C(=O)N(C)c2cccc(CN3CCN4c5cc6c(cc5OC[C@@H]4C3)C(=O)N([C@H]3CCC(=O)NC3=O)C6)c2)cc1
A. > 10000 nM

Q. Determine its reported DC50: O=C1CCC(N2Cc3cc4c(cc3C2=O)OC[C@@H]2CN(Cc3ccccc3)CCN42)C(=O)N1 (stereo partly drawn)
A. > 2000 nM

Q. Determine its reported DC50: O=C1CCC(N2Cc3cc4c(cc3C2=O)OC[C@@H]2CN(Cc3ccc(F)cc3)CCN42)C(=O)N1 (stereo partly drawn)
A. > 2000 nM

Q. Determine its reported DC50: COc1ccc(C(=O)Nc2cccc(CN3CCN4c5cc6c(cc5OC[C@H]4C3)C(=O)N(C3CCC(=O)NC3=O)C6)c2)cc1 (stereo partly drawn)
A. > 1000 nM

###

Biological target: IKZF2 (Homo sapiens, UniProt Q96SW2+Q9UKS7)
Construct: host or cells: Jurkat-IKZF2-HiBiT
Test: IKZF2 HiBiT degradation assay (Jurkat-IKZF2-HiBiT)
Type: cell-based
Details: read-out: IKZF2 degradation DC50; Jurkat-IKZF2-HiBiT cells, 24 hours
VALUE TYPE: DC50

Q. Determine its reported DC50: CC(=O)Nc1cccc(CN2CCN3c4cc5c(cc4OC[C@@H]3C2)C(=O)N([C@H]2CCC(=O)NC2=O)C5)c1
A. > 1000 nM

Q. Determine its reported DC50: O=C1CC[C@H](N2Cc3cc4c(cc3C2=O)OC[C@@H]2CN(Cc3cccc(NC(=O)c5ccccc5Cl)c3)CCN42)C(=O)N1
A. > 1000 nM

Q. Determine its reported DC50: O=C1CC[C@H](N2Cc3cc4c(cc3C2=O)OC[C@@H]2CN(Cc3cccc(NS(=O)(=O)c5ccccc5)c3)CCN42)C(=O)N1
A. > 1000 nM

Q. Determine its reported DC50: CC(=O)N1CCC(CCN2CCN3c4cc5c(cc4OC[C@@H]3C2)C(=O)N(C2CCC(=O)NC2=O)C5)CC1 (some centres unmarked)
A. > 2000 nM

Q. Determine its reported DC50: O=C1CCC(N2Cc3cc4c(cc3C2=O)OC[C@H]2CN(CC3CCCC3)CCN42)C(=O)N1 (some centres unmarked)
A. > 1000 nM
